System: MS2 coat protein
method: apparent KD of MS2 coat protein; designed switch direction (-1 OFF switch, 1 ON switch): -1; higher = weaker reporter binding
measurement setup: input ligand: none
Each entry below carries its recorded apparent KD of MS2 coat protein.
reported metric: apparent KD of MS2 coat protein (nM)

chain sequence: CUGAUGUCAGGAUAUCGGUGGCUCACUAAUGUGUGCCAGACCGAGAAGGGACAUGAGGAUCACCCAUGUCUUUA [Exclusion 4 (Mod5b of #36 by Marzena11)] (Eterna round: R97, puzzle: Exclusion 4)
unit symbol: nM
value measured: 26.2
--
chain sequence: CGGCGCCUAGGAUAUACUCUGAGAAUCAGUUGGGUCUCCGGACAUGAGGAUCACCCAUGUAGAAGGAGGAAGCU [EX2 C.11] (Eterna round: R97, puzzle: Exclusion 2)
unit symbol: nM
value measured: 18.4
--
chain sequence: UUCUUUAUACGAGGAUAUCAUACAUGAGGAUCACCCAUGUGGCUGGGUCUGUUUUUAUAUAAUAUUGAGAAGGCGUUUUGCUAU [JR_ExcNG2_Sub072] (Eterna round: R96, puzzle: Exclusion NG 2)
unit symbol: nM
value measured: 80.9
--
chain sequence: AUUAUGUUAGGAUAUUAUUUGCCCUACUAAGGCACGAGAAGUAAGAAGGGACAUGAGGAUCACCCAUGUUGGAG [Eternabot (L2) Solution 71] (Eterna round: R97, puzzle: Exclusion 4)
unit symbol: nM
value measured: 42.7
--
chain sequence: GUAUAGCGAGGAUAUACAUGAGGAUCACCCAUGUGAUCCUUAGGCUGUACAAGCCAAUGUAGAAGGCGCAAAUU [jl-ex3.4.59 ViennaUCT mod] (Eterna round: R97, puzzle: Exclusion 3)
unit symbol: nM
value measured: 147
--
chain sequence: GCUCGUGGGCAAGGAUAUCCUACGCUGUUCUGGUUCGUGUCUGUUACAUGAGGAUCACCCAUGUGGGAGAAGGUGCACCAGGGU [Design 50] (Eterna round: R96, puzzle: Exclusion NG 2)
unit symbol: nM
value measured: 18.3

* * *

System: MS2 coat protein
method: apparent KD of MS2 coat protein; designed switch direction (-1 OFF switch, 1 ON switch): -1; higher = weaker reporter binding
measurement setup: input ligand: FMN 200 uM
reported metric: apparent KD of MS2 coat protein (nM)

chain sequence: UGUUGUCGCGCAGGAUAUGUAUGAGGAUCACCCAUUAAUAAAUUUUAACCACGAGGAUCACCCGUGUAGAAGGGCGGGACAACA [pwkr exNG2 2xF5 1xFMN.15] (Eterna round: R96, puzzle: Exclusion NG 2)
reported metric: apparent KD of MS2 coat protein
value measured: 30.8
//
chain sequence: GAGUGCUGAGGAUAUACAUGAGGAUCACCCAUGUGCUUCAGCUAGGAGACUAGCAUUGGUAGAAGGUAGUACUC [Mod of lroppy 4 - Jieux - Exclusion 3] (Eterna round: R97, puzzle: Exclusion 3)
reported metric: apparent KD of MS2 coat protein
value measured: 19.9
//
chain sequence: AACCGUGCGGAGGAUAUUGAUAUCCCAGUCUAUCAAGAAGGCUGCACAUGAGGAUCACCCAUGUGAUCCGUGCU [Riri] (Eterna round: R96, puzzle: Exclusion 6)
reported metric: apparent KD of MS2 coat protein
value measured: 201
//
chain sequence: UCUUUCUUUGUGAGGAUAUGCCCAAAUAAAAGCGGGCAGAAGGCACAUGAGGAUCACCCAUGUCCUGCGGUUUU [salish99_bmx4_r4_147] (Eterna round: R97, puzzle: Brourd's mod of Exclusion 4)
reported metric: apparent KD of MS2 coat protein
value measured: 174
//
chain sequence: UACACUGCAUGAGGAUCAAACAUGAGGAUCACCCAUGUGUAGCAAGCUUUUUGCUCGUCUUAUAAUUAUGUAGUGUA [Electric Eye 11 - Jieux - Sensor, turn-off variant 1] (Eterna round: R97, puzzle: Sensor, turn-off variant 1)
reported metric: apparent KD of MS2 coat protein
value measured: 14
//
chain sequence: GCACUCUUGUGAGGAUAUCGUUAAGGGACUUAACGAGAAGGUACAUGAGGAUCACCCAUGUGGAUCCUCCCGUUUGGAUCACUU [Eternabot solution 3] (Eterna round: R96, puzzle: Exclusion NG 1)
reported metric: apparent KD of MS2 coat protein
value measured: 177
//
chain sequence: AAAAAGUUAGGAUAUACAUGAGGAUCACCCAUGUACAUAUAUGGAGAAAAAAACAGUAGUAGAAGGGACAAAAA [EX2 Malc#12] (Eterna round: R96, puzzle: Exclusion 3)
reported metric: apparent KD of MS2 coat protein
value measured: 28.8
//
chain sequence: ACCAUGUUAGGAUAUGCGUGGCAUAGACCGGUCUAUCCGCGGUAGAAGGGACAUGAGGAUCACCCAUGUGCGAG [Eternabot (L2) Solution 85] (Eterna round: R97, puzzle: Exclusion 4)
reported metric: apparent KD of MS2 coat protein
value measured: 41.5
//
chain sequence: AAGAAGUCAGGAUAUACAUGAGGAUCACCCAUGUAAAAGAAAGAAAAGGGAAAGAAAAGUAGAAGGGACAAGAA [Menkheperre Thutmose III] (Eterna round: R96, puzzle: Exclusion 3)
reported metric: apparent KD of MS2 coat protein
value measured: 22.9
//
chain sequence: ACAUGAGGAUCACCCAUGUCAGGCUGGUCCGCUCCGGCUGUUGAGGAUAUAGCACGGUGUCCGCGCUAGAAGGUGAGGGCCGGC [Aenatbe mod 31] (Eterna round: R96, puzzle: Exclusion NG 3)
reported metric: apparent KD of MS2 coat protein
value measured: 24.8
//
chain sequence: UGCGAGUAAGGAUAUUCGCGACCGCCCACAAAGGCGGUCGAGAAGAAGGUACUUGAGGAUCACCCAAGUCCUAA [Anremaqu] (Eterna round: R97, puzzle: Exclusion 4)
reported metric: apparent KD of MS2 coat protein
value measured: 98.2
//
chain sequence: GGAGGAAAGAUAGGAUAUUAGAGGAAGGUGGUGAUAGAGACAUGAGGAUCACCCAUGUAAGGAGGUAAGAAGGGUCGAGGAGGA [AK ExNG2-V2-6] (Eterna round: R96, puzzle: Exclusion NG 2)
reported metric: apparent KD of MS2 coat protein
value measured: 231
//
chain sequence: UCGUGUAUAGAGGAUAUAUUAUUUAUUUAAACAAUAGAAGGCUAAACAUGAGGAUCACCCAUGUAUUUGGUUUU [JR_Ex6_Sub052] (Eterna round: R97, puzzle: Exclusion 6)
reported metric: apparent KD of MS2 coat protein
value measured: 59.9

This collection of values is drawn from the supplement of paper PMC9170038.
